# test-target: PLK1 kinase (Homo sapiens, UniProt P53350)
# Construct: purchased Carnabio (Carna Biosciences) 05-157
# Sequence (P53350 whole entry): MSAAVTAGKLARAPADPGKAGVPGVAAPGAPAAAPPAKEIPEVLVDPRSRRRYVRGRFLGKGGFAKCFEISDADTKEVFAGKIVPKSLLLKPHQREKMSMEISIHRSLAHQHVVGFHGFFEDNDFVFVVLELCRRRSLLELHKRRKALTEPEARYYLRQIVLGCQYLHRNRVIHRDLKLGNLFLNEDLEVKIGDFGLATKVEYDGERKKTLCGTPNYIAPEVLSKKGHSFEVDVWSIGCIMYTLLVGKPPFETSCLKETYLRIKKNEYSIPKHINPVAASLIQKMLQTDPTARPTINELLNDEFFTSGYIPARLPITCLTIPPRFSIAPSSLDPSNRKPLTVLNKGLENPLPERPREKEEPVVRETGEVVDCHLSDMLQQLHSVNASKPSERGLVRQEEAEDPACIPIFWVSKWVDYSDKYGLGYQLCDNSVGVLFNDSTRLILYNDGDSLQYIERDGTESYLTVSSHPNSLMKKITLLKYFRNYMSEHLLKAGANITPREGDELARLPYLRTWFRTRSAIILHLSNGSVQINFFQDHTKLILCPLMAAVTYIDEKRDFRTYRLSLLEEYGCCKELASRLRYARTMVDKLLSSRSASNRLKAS
# experimental-details: Inhibitory activity on PLK1 kinase
# Format: biochemical
// classify: if (IC50 < 700 pM) class 1 else class 0

test_smiles=CN1CCN(c2ccc(OC(F)(F)F)c(Nc3ncc4ccc5c(C(N)=O)nn(CC(F)(F)F)c5c4n3)c2)CC1 test_target="PLK1 kinase (Homo sapiens, UniProt P53350)" class_assignment="class 1"
test_smiles=CN1CCN(c2ccc(OC(F)(F)F)c(Nc3ncc4ccc5c(C(=O)NOCCO)nn(CCO)c5c4n3)c2)CC1 test_target="PLK1 kinase (Homo sapiens, UniProt P53350)" class_assignment="class 0"
test_smiles=CN1CCN(c2ccc(OC(F)(F)F)c(Nc3ncc4ccc5c(C(=O)NOCCO)nn(CCF)c5c4n3)c2)CC1 test_target="PLK1 kinase (Homo sapiens, UniProt P53350)" class_assignment="class 0"
test_smiles=CN1CCN(c2ccc(OC(F)(F)F)c(Nc3ncc4ccc5c(C(=O)NO)nn(CC(F)(F)F)c5c4n3)c2)CC1 test_target="PLK1 kinase (Homo sapiens, UniProt P53350)" class_assignment="class 1"
test_smiles=CN1CCN(c2ccc(OC(F)(F)F)c(Nc3ncc4ccc5c(C(N)=O)nn(C6CC6)c5c4n3)c2)CC1 test_target="PLK1 kinase (Homo sapiens, UniProt P53350)" class_assignment="class 1"
test_smiles=CN1CCN(c2ccc(OC(F)(F)F)c(Nc3ncc4ccc5c(C(N)=O)cn(CCO)c5c4n3)c2)CC1 test_target="PLK1 kinase (Homo sapiens, UniProt P53350)" class_assignment="class 0"
test_smiles=CN1CCN(c2ccc(OC(F)(F)F)c(Nc3ncc4ccc5c(C(=O)NO)nn(CCO)c5c4n3)c2)CC1 test_target="PLK1 kinase (Homo sapiens, UniProt P53350)" class_assignment="class 0"
test_smiles=CN1CCN(c2ccc(OC(F)(F)F)c(Nc3ncc4ccc5c(C(=O)NO)nn(CCF)c5c4n3)c2)CC1 test_target="PLK1 kinase (Homo sapiens, UniProt P53350)" class_assignment="class 0"
